target entity: AII receptor
method: Ligand-receptor binding assay, displacement of [125I]AII from rat adrenal cortex particulate fraction
condition context: 0.05 nM [125I]AII, 1 h incubation, read-out: Angiotensin II Receptor Binding IC50
Listing: IC50 of selected compounds
Number in nM, nothing else.

Worked set:
CCCc1nc(CC)c(C(=O)OCOC(=O)C(C)(C)C)n1Cc1ccc(-c2ccccc2-c2nnn[nH]2)cc1 [Example 5] : 2
CCCc1nc(CC)c(C(=O)OCc2oc(=O)oc2-c2ccccc2)n1Cc1ccc(-c2ccccc2-c2nn[nH]n2)cc1 [Example 15] : 6
CCCc1nc(CC)c(C(=O)OCOC(=O)OC)n1Cc1ccc(-c2ccccc2-c2nn[nH]n2)cc1 [Example 7] : 3
CCCc1nc(CC)c(C(=O)OCc2oc(=O)oc2C)n1Cc1ccc(-c2ccccc2-c2nn[nH]n2)cc1 [Example 13] : 3
CCCc1nc(CC)c(C(=O)OC(C)OC(=O)OC)n1Cc1ccc(-c2ccccc2-c2nn[nH]n2)cc1 (stereo not drawn) [Example 11] : 4

Now for the compound whose IC50 we want.
INPUT: Returns the measured IC50 for the input compound. Input: CCCc1nc(CC)c(C(=O)OCOC(=O)OC(C)(C)C)n1Cc1ccc(-c2ccccc2-c2nnn[nH]2)cc1 [Example 9]
OUTPUT: 6
